Tested on: PA-1
TEST_PROTOCOL: Primary qHTS to identify gynecologic anti-cancer compounds using libraries of approved drugs and bioactive compounds (AID 1345084); note: nearly all actives have a fitted effect of over 55% in size
RUN_CONDITIONS: Gynecologic cancer cell panel viability, ATPlite luminescence, 48 h; series mostly up to 57.5 µM
Inconclusive results are not listed. The source made the active and inactive calls. Calls come from the whole dose curve; as a rule, active = well fitted cell-killing curve with a large enough effect; inconclusive = small, poorly fitted or top-dose-only effect, or effect the other way; inactive = flat fitted curve, though single readings scatter.
Labels: 1 (active), -1 (inactive)

MOLECULE	ASSIGNED_LABEL
COc1cc2ncnc(Nc3ccc(F)c(Cl)c3)c2cc1O	-1
COC(=O)c1cc2c(C(F)(F)F)cc(-c3ccccc3)cc2n1O	-1
O=C(NC1CCC1)c1ccc(C#Cc2cccc(F)c2)nc1	-1
CC[C@H]1OC(=O)[C@H](C)[C@@H](O[C@H]2C[C@@](C)(OC)[C@@H](O)[C@H](C)O2)[C@H](C)[C@@H](O[C@H]2O[C@H](C)C[C@H](N(C)C)[C@H]2O)[C@](C)(O)C[C@@H](C)C(=O)[C@H](C)[C@@H](O)[C@]1(C)O	-1
C/C=C/[C@@H]1C=C[C@@H]2C[C@H](C)CC[C@H]2[C@]1(C)/C(O)=C1/C(=O)[C@@H](CO)N(C)C1=O	-1
O=C(Nc1ccnc(NC(=O)C2CC2)c1)c1c(Cl)cccc1Cl	1
CC(C)S(=O)(=O)NC[C@H](C)c1ccc(-c2ccc(CCNS(C)(=O)=O)cc2)cc1	-1
C=C1C(=O)OC2/C=C(\C)CC/C=C(\C=O)C(OC)C(OC(=O)C(C)CC)C12 (stereo not drawn)	-1

---

Tested on: OV90
TEST_PROTOCOL: Primary qHTS to identify gynecologic anti-cancer compounds using libraries of approved drugs and bioactive compounds (AID 1345084); note: nearly all actives have a fitted effect of over 55% in size
RUN_CONDITIONS: Gynecologic cancer cell panel viability, ATPlite luminescence, 48 h; series mostly up to 57.5 µM
Results filed as inconclusive are left out. Calls of active or inactive are those of the source. Calls follow the shape of the dose curve; as a rule, active = well fitted cell-killing curve with a large enough effect; inconclusive = small, poorly fitted or top-dose-only effect, or effect the other way; inactive = flat fitted curve, though single readings scatter.
Outcomes: 1 = active, -1 = inactive

COMPOUND	ASSIGNED_LABEL
COc1cc2nc(N3CCN(C(=O)c4ccco4)C4CCCCC43)nc(N)c2cc1OC (centres undefined)	-1
C/C=C(/C)C(=O)OC1C=C2C3C(C)C(C)C(OC(=O)C(C)C(C)O)CC3(C)CCC2(C)C2(C)CC(OC(C)=O)C3C(C)(C)C(O)C(=O)CC3(C)C12 (centres undefined)	-1
Cc1ccc(C(=O)Nc2ccc(CN3CCN(C)CC3)c(C(F)(F)F)c2)cc1C#Cc1cnc2[nH]ncc2c1	1
Cc1[nH]c(/C=C2\C(=O)Nc3cc(-c4ccccc4)ccc32)c(C)c1CCC(=O)O	-1
CCCNCCc1ccc(NS(=O)(=O)c2ccc(OC(F)(F)F)cc2)cc1	-1
C/C=C/C=C/C=C/C(=O)O[C@@H]1C=C2COC(=O)[C@]2(O)[C@@]2(C)CCCC(C)(C)[C@H]12	-1
COC1CCN(C(=O)c2cc(Cc3n[nH]c(=O)c4ccccc34)ccc2F)CC1	-1
CNc1ccc([N+](=O)[O-])c(Nc2ccc3[nH]ncc3c2)n1	-1
C=C(C)C(=O)O[C@H]1[C@H]2C(=C)C(=O)O[C@@H]2/C=C(\CO)CC/C=C(/C=O)[C@@H]1O	-1

---

Tested on: C33A
TEST_PROTOCOL: Primary qHTS to identify gynecologic anti-cancer compounds using libraries of approved drugs and bioactive compounds (AID 1345084); note: nearly all actives have a fitted effect of over 55% in size
RUN_CONDITIONS: Gynecologic cancer cell panel viability, ATPlite luminescence, 48 h; series mostly up to 57.5 µM
Inconclusive results are not listed. Active and inactive are the calls of the source. Calls follow the shape of the dose curve; as a rule, active = well fitted cell-killing curve with a large enough effect; inconclusive = small, poorly fitted or top-dose-only effect, or effect the other way; inactive = flat fitted curve, though single readings scatter.
Classes used: yes = active, no = inactive

COMPOUND	ASSIGNED_LABEL
C=C1C(=O)OC[C@@H]1C/C=C(\C)CC1CC(C)C(=O)O1 (stereo not given in full)	no
Cc1onc(-c2ccccc2)c1C(=O)N1CCN(c2ccc([N+](=O)[O-])cc2Cl)CC1	no
CC(=O)O[C@@H]1CC2C(/C=C(\C)C(=O)[C@@]3(O)C[C@@H](C)[C@H](OC(=O)c4ccccc4)C3/C=C/1C)C2(C)C (stereo not given in full)	no
CC(C)(Cc1nc(-c2ccc(O)cn2)no1)C(=O)NC1=C(C(=O)O)CCCC1	no
Cn1sc(=O)n(Cc2ccccc2)c1=O	no
CN1CCN(c2ccc(-c3cccc(CN4CCOCC4)c3)cc2NC(=O)c2c[nH]c(=O)cc2C(F)(F)F)CC1	no
O=S(=O)(Nc1cc(Cl)c(Oc2cnc3ccccc3c2)c(Cl)c1)c1ccc(Cl)cc1Cl	no
Cc1ccc(NC(=O)N2CCN(c3nc(N)nc4sc(-c5cccnc5)nc34)CC2)cc1	no
Cc1nc(N2CCN(C(=O)c3ccco3)CC2)c2c3c(sc2n1)CCCC3	no
CCOc1ccc(-n2c([C@@H](C)N(Cc3cccnc3)C(=O)Cc3ccc(OC(F)(F)F)cc3)nc3ncccc3c2=O)cc1	no
NS(=O)(=O)c1ccc(NC(=O)Nc2ccc(F)cc2)cc1	no
CC(C)(O)c1ccc2c(c1)ncn2-c1cccc(-c2ccccc2C#N)c1	no
CCC/C=C\C=C/CCc1cc(O)c([C@@H]2O[C@H](CO)[C@@H](O)[C@H](O)[C@H]2O)c(O)c1C(=O)OC	no
C=C1CC[C@@H]2[C@](C)(CO)[C@H](O)CC[C@@]2(C)[C@@H]1CC(=O)C1=CCOC1=O	no
O=C(NC[C@H](O)CN1CCc2ccccc2C1)c1ccnc(NC2CCC2)c1	no
Cc1ccc(N2CCN(CCC3NC(=O)c4ccccc43)CC2)cc1C (stereo not given)	no
Cc1nc(C#Cc2ccnc(Cl)c2)c(C)n1-c1ccc(OC(F)(F)F)cc1	no
CC(=O)OC[C@]12[C@H](OC(C)=O)[C@H](OC(=O)c3ccccc3)[C@@H]3[C@@H](OC(C)=O)[C@]1(OC3(C)C)[C@H](C)C[C@H](OC(C)=O)[C@@H]2OC(=O)c1ccccc1	no
Nc1ncnc2c1nc(Cl)n2C1OC2COP(=O)(O)OC2C1O (stereo not given)	yes
Cc1cc(C(C)Nc2ccccc2C(=O)O)c2nc(N3CCOCC3)cc(=O)n2c1 (stereo not given)	no
NC(=O)N1CCC(CC(=O)N2CCC(C3c4ncc(Br)cc4CCc4cc(Cl)cc(Br)c43)CC2)CC1 (stereo not given)	no
CCNC(=O)N1CCCN(c2ccc(C(=O)NCCc3ccc(Cl)cc3Cl)cc2NC(=O)c2cccc(Cl)c2)CC1	no
CC1(C)CC[C@]2(C(=O)O[C@@H]3O[C@H](CO)[C@@H](O)[C@H](O)[C@H]3O)CC[C@]3(C)C(=CCC4[C@@]5(C)CC[C@H](O[C@@H]6O[C@H](C(=O)O)[C@H](O)[C@H](O)[C@H]6O)C(C)(C)C5CC[C@]43C)[C@@H]2C1 (stereo not given in full)	no
Cc1c(C(=O)NCc2cccnc2)nn(-c2ccc(Cl)cc2Cl)c1-c1ccc(Cl)cc1	no
Nc1nc2c(s1)CCN(Cc1ccc(Cl)cc1)CC2	no
CC(C)(O)C1CC(=O)C2(C)C(CCC3(C)C(c4ccoc4)OC(=O)C4OC432)C12CCC(=O)OC2 (stereo not given)	no
Cc1ccccc1C(C(=O)NC1CCCCC1)N(C(=O)Cn1cnc2ccccc21)c1cccc(F)c1 (stereo not given)	no
C[C@@H]1CCCN1CCc1cc2cc(-c3ccc(C#N)cc3)ccc2o1	no
C=C(C(=O)O)[C@@H]1CC=C(CCC(C)=O)[C@@H](C)CC1	no
CCN(CC)C(=O)C(c1ccccc1)N1CCN(c2ccc(NC(=O)c3ccccc3-c3cccnc3)cc2F)CC1 (stereo not given)	no
COc1ccc(-c2csc(NC(=O)[C@H]3CCCCN3S(=O)(=O)c3ccc(C)cc3)n2)cc1	no
O=C([C@@H](Cc1cccc(C(F)(F)F)c1)NS(=O)(=O)c1cc(F)c2c(c1)CCNC2)N1CCCC1	no
C/C1=C/CCC2=CC(OC2=O)C(C)(C)/C=C/C1=O (stereo not given)	yes
COc1ccc(CCc2nc3cc(-c4c(C)noc4C)ccc3n2CC(C)N2CCOCC2)cc1Cl (stereo not given)	no
COC1CC(O[C@H]2CC[C@]3(C)C4CC[C@@]5(C)C(=O)[C@]4(CC[C@@H]3C2)CC[C@@H]5C2=CC(=O)OC2)OC(C)C1OC1OC(COC2OC(CO)C(O)C(O)C2O)C(O)C(O)C1O (stereo not given in full)	yes

Cited source: PubChem BioAssay (NCATS)
